Taken from paper PMC9320114.

Biological target: hMAO-B (Homo sapiens, UniProt P27338)
Sequence (P27338 1-520): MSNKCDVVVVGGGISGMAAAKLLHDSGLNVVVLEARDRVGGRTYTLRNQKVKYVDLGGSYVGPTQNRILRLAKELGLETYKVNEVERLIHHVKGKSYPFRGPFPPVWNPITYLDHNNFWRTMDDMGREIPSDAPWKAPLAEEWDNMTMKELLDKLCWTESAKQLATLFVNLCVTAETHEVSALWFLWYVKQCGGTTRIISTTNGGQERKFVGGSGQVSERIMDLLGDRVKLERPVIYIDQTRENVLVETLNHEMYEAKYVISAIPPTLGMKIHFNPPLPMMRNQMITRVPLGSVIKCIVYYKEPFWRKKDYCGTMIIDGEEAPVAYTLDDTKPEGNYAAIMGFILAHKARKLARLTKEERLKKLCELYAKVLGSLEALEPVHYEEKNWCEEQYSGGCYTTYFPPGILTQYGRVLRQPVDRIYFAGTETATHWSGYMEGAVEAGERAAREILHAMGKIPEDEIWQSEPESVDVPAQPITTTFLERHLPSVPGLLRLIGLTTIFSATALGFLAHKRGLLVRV
Label key: class 1 means IC50 under 0.5 µM; class 0 means IC50 of 0.5 µM or more.

Below are worked cases with known answers.
Query :: API: query returns whether the molecule falls strictly under 0.5 µM in IC50. Query: `Nc1ccc(NC(=O)Nc2cc(C(F)(F)F)ccc2-n2cncn2)cc1`
Result :: class 0

Query :: Input `O=C(Nc1ccc(OCCN2CCCCC2)cc1)Nc1cc(C(F)(F)F)ccc1-n1cncn1` ; condition: IC50 strictly below 0.5 µM. Does it hold?
Result :: class 0

Query :: API: query returns whether the molecule falls strictly under 0.5 µM in IC50. Query: `Nc1ncnc2c1ncn2-c1ccc(NC(=O)Nc2cc(C(F)(F)F)ccc2-n2cncn2)cc1`
Result :: class 0

Query :: Strictly below 0.5 µM: is that where IC50 of `O=C(Nc1ccc(Oc2ccncc2)cc1)Nc1cc(C(F)(F)F)ccc1-n1cncn1` sits?
Result :: class 1

Query :: Check if IC50 falls below 0.5 µM for `CN(C)CCOc1ccc(NC(=O)Nc2cc(C(F)(F)F)ccc2-n2cncn2)cc1` .
Result :: class 1

***
Query :: Field: below-cutoff. Rule: recorded IC50 strictly less than 0.5 µM. Subject: `O=C(OC[C@H]1CCCN1c1ccnc2ncnn12)c1ccc(Oc2ccccc2)nc1`
Result :: class 0

----------
biological target: MurC (Escherichia coli); assay: Inhibition of MurC, colorimetric malachite green method; format: biochemical, bacterial; conditions: Table 2; IC50 ± SEM; read-out: MurC IC50
METRIC: pIC50
Give bare numbers, as −log10 of the molar value.

In the examples that follow, each entry is paired with its recorded pIC50.
Query :: Let me know recorded pIC50 for `CCCCc1nc2ccn(Cc3ccccc3C(=O)O)c(=O)c2n1Cc1ccc(-c2ccccc2-c2nnn[nH]2)cc1` , thanks.
Result :: 3.96

Query :: Output measured pIC50 for this item: `CCCCc1nc2ccn(CC(=O)N3CCCCC3)c(=O)c2n1Cc1ccc(-c2ccccc2S(=O)(=O)NC(=O)OCc2ccccc2)cc1F`
Result :: 4.00

Query :: Output measured pIC50 for this item: `CCCCc1nc2ccn(Cc3ccsc3)c(=O)c2n1Cc1ccc(-c2ccccc2-c2nnn[nH]2)cc1`
Result :: 4.05

Query :: Tell us which pIC50 value is on record for `CCCCc1nc2ccn(Cc3ccccc3C(=O)OC)c(=O)c2n1Cc1ccc(-c2ccccc2-c2nnn[nH]2)cc1`
Result :: 4.08

Query :: Annotate the compound `CCCCc1nc2ccn(Cc3ccccc3-c3ccccc3)c(=O)c2n1Cc1ccc(-c2ccccc2-c2nnn[nH]2)cc1` with its measured pIC50.
Result :: 4.12

Query :: Annotate the compound `CCCCc1nc2ccn(Cc3ccccc3Cl)c(=O)c2n1Cc1ccc(-c2ccccc2-c2nnn[nH]2)cc1` with its measured pIC50.
Result :: 4.11

Kindly review the next compound as well.
Query :: Supply reported pIC50 belonging to this compound: `CCCCc1nc2ccn(Cc3ccccc3F)c(=O)c2n1Cc1ccc(-c2ccccc2-c2nnn[nH]2)cc1`
Result :: 4.04

----------
target: human butyrylcholinesterase (hBChE) (Homo sapiens); experiment: biochemical; assay type: biochemical; conditions: residual activity at 10 µM; Mini Library screen, Table S1
So basically: hBChE RA (%) at 90% or higher? That is Met. Lower than 90%? That is Not met.

Use these answered entries as a reference point.
Query :: For this compound, is measured hBChE RA (%) 90% or higher? `O=C(OC[C@H]1CCCN1c1ccnc2ncnn12)c1ccc(Oc2ccccc2)nc1`
Result :: Not met

Query :: Decide: is the reported value of hBChE RA (%) for `CCCCCCN(Cc1ccc(C#Cc2ccc(CCCC)cc2)cc1)C(=O)c1ccc(O)c(C(=O)O)c1` equal to or greater than 90%?
Result :: Met

Query :: Record `CCCCc1nc2ccn(Cc3ccccc3)c(=O)c2n1Cc1ccc(-c2ccccc2-c2nnn[nH]2)cc1` ; criterion: hBChE RA (%) no lower than 90%. Met?
Result :: Not met

Query :: Is the recorded value of hBChE RA (%) equal to or greater than 90% for this compound? `O=C(Nc1ccc(Oc2ccncc2)cc1)Nc1cc(C(F)(F)F)ccc1-n1cncn1`
Result :: Not met

Query :: Does the reported hBChE RA (%) for `CCCCCCN(Cc1ccc(C#Cc2ccc(CCCC)cc2)cc1)c1ccc(F)c(C(=O)O)c1` fall at or above the 90% mark?
Result :: Not met

Then this compound:
Query :: Quick check: does `CCCCCCN(Cc1ccc(C#Cc2ccc(CCCC)cc2)cc1)c1ccc(O)c(C(=O)O)c1` have hBChE RA (%) greater than or equal to 90%?
Result :: Not met

----------
molecular target: human butyrylcholinesterase (hBChE) (Homo sapiens, UniProt P06276); assay: biochemical; format: biochemical; conditions: Table 1; IC50 ± SEM; read-out: hBChE IC50
Sequence (P06276 29-602): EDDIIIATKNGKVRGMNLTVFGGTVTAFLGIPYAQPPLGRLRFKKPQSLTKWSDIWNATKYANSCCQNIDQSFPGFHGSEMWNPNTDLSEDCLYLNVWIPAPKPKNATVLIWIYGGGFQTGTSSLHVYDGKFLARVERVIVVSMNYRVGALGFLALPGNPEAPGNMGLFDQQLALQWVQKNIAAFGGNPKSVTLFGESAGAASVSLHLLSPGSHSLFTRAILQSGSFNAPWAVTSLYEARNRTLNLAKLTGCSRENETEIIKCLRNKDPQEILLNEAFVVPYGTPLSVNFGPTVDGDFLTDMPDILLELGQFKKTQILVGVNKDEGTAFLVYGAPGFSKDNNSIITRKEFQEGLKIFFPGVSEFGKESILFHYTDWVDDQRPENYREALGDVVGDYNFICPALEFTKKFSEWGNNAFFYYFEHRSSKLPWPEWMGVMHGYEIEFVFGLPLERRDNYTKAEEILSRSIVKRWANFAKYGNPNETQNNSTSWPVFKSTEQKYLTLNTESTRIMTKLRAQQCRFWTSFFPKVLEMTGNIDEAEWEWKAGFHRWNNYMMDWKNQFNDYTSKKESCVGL
METRIC: IC50 (nM)
Numbers only, in nM.

Query :: Provide only the value of recorded IC50 for CCCCCCN(Cc1ccc(C#Cc2ccc(CCCC)cc2)cc1)c1ccc(O)c(C(=O)O)c1 [MS-ML24]
Result :: 949

----------
target: MurC (Escherichia coli, UniProt P17952); experiment: Inhibition of MurC, colorimetric malachite green method; format: biochemical, bacterial; conditions: 0.25 h; residual activity at 100 µM; Table 2; read-out: MurC RA (%)
Sequence (P17952 whole entry): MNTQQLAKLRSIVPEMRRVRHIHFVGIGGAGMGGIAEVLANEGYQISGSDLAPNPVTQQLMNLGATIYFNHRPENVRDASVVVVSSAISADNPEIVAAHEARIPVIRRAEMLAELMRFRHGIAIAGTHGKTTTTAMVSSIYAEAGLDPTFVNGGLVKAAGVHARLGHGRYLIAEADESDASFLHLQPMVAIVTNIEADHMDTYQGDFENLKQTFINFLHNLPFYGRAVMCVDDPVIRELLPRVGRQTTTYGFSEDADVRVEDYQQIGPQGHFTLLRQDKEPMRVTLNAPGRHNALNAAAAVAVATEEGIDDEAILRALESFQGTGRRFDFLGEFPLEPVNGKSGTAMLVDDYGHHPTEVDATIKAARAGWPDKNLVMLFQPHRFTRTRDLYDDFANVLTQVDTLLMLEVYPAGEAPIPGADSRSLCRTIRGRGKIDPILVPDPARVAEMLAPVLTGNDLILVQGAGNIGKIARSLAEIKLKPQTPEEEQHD
Please respond with reported remaining activity at 100 µM for every item in the list.
Answers are plain numbers, in %.

For each listed entry, give its remaining activity at 100 µM.
1. CCCCc1nc2ccn(Cc3ccccc3C(=O)OCC)c(=O)c2n1Cc1ccc(-c2ccccc2C#N)cc1
2. CCCCc1nc2ccn(Cc3ccccc3-c3ccccc3)c(=O)c2n1Cc1ccc(-c2ccccc2-c2nnn[nH]2)cc1
3. CCCCc1nc2ccn(CC(=O)N3CCCCC3)c(=O)c2n1Cc1ccc(-c2ccccc2S(=O)(=O)NC(=O)OCc2ccccc2)cc1F
4. CCCCc1nc2ccn(Cc3ccccc3C(=O)O)c(=O)c2n1Cc1ccc(-c2ccccc2-c2nnn[nH]2)cc1

Result ::
1: 58; 2: 15; 3: 32; 4: 34

Batch request: remaining activity at 100 µM per item, same order as input.
1. CCCCc1nc2ccn(Cc3ccccc3F)c(=O)c2n1Cc1ccc(-c2ccccc2-c2nnn[nH]2)cc1
2. CCCCc1nc2ccn(CC(=O)NC(C)(C)C)c(=O)c2n1Cc1ccc(-c2ccccc2S(=O)(=O)NC(=O)CCc2ccccc2)cc1F
3. CCCCc1nc2ccn(Cc3ccccc3C(=O)OC)c(=O)c2n1Cc1ccc(-c2ccccc2-c2nnn[nH]2)cc1

Result ::
1. 30
2. 59
3. 27

----------
molecular target: murine acetylcholinesterase (mAChE) (Mus musculus, UniProt P21836); experiment: biochemical; type: biochemical; details: Mini Library screen, Table S1
Sequence (P21836 32-614): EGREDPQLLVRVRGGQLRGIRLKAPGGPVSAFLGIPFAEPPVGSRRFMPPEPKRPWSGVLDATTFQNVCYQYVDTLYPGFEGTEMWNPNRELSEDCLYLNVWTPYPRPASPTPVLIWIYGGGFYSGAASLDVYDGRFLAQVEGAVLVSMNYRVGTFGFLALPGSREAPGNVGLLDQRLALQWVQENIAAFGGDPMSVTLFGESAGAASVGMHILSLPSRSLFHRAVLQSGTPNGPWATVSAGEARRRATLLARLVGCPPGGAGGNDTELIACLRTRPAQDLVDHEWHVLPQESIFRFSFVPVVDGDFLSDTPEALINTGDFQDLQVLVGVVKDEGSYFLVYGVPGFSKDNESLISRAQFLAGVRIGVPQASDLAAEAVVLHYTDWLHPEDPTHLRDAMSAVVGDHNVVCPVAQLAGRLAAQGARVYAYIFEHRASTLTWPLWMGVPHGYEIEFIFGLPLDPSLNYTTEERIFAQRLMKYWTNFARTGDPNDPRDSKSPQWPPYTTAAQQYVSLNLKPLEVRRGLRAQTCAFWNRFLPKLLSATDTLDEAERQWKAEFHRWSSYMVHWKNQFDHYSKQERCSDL
METRIC: pIC50
Numbers only, as −log10 of the molar value.

The following compounds have reported results that may help.
Query :: Give the reported pIC50 for this compound. CCCCCCN(Cc1ccc(C#Cc2ccc(CCCC)cc2)cc1)c1ccc(O)c(C(=O)O)c1 [MS-ML24]
Result :: 6.38

Query :: Quick one: give measured pIC50 for CCCCCCN(Cc1ccc(C#Cc2ccc(CCCC)cc2)cc1)c1ccc(F)c(C(=O)O)c1 [MS-ML26]
Result :: 6.44

Lab note: next compound to report on.
Query :: Report pIC50, nothing else, for this compound: CCCCCCN(Cc1ccc(C#Cc2ccc(CCCC)cc2)cc1)C(=O)c1ccc(O)c(C(=O)O)c1 [MS-ML25]
Result :: 6.43

----------
biological target: MurA (Escherichia coli); assay: Inhibition of MurA, colorimetric malachite green method; format: biochemical, bacterial; settings: 0.25 h, read-out: MurA (RA [%])
Sequence (P0A749 whole entry): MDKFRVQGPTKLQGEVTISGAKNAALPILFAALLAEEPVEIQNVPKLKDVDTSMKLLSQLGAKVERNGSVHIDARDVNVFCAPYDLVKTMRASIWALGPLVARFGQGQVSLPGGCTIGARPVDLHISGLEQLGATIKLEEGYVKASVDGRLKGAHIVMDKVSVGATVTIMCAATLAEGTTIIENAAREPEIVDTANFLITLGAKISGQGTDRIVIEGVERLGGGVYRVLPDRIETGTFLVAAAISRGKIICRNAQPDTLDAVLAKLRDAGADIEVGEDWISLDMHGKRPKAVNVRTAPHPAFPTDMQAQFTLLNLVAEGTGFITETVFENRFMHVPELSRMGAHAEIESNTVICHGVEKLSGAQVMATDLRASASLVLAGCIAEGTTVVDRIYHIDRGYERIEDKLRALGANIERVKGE
METRIC: remaining activity at 50 µM (%)
Numbers only, in %.

Some compounds with known remaining activity at 50 µM results, for comparison:
Query :: Fill in remaining activity at 50 µM for record `C1=C(c2ccccc2)CCN(CCCCc2c[nH]c3ccccc23)C1`
Result :: 110

Query :: Report remaining activity at 50 µM for `CCCCCCN(Cc1ccc(C#Cc2ccc(CCCC)cc2)cc1)c1ccc(O)c(C(=O)O)c1`
Result :: 15

Query :: Give reported remaining activity at 50 µM value for `CCCCCCN(Cc1ccc(C#Cc2ccc(CCCC)cc2)cc1)C(=O)c1ccc(O)c(C(=O)O)c1`
Result :: 0

Query :: Give the measured remaining activity at 50 µM for `CCCCc1nc2ccn(CC(=O)N3CCCCC3)c(=O)c2n1Cc1ccc(-c2ccccc2S(=O)(=O)NC(=O)OCc2ccccc2)cc1F`
Result :: 90

Quick request: remaining activity at 50 µM for each listed item, please.
1. CCCCc1nc2ccn(Cc3ccccc3)c(=O)c2n1Cc1ccc(-c2ccccc2-c2nnn[nH]2)cc1
2. O=C(OC[C@H]1CCCN1c1ccnc2ncnn12)c1ccc(Oc2ccccc2)nc1
3. Oc1ccc2[nH]cc(CCCCN3CC=C(c4ccccc4)CC3)c2c1
4. CCCCCCN(Cc1ccc(C#Cc2ccc(CCCC)cc2)cc1)c1ccc(F)c(C(=O)O)c1
5. O=C(Nc1ccc(Oc2ccncc2)cc1)Nc1cc(C(F)(F)F)ccc1-n1cncn1

Result ::
100
94
100
7
93
